Test system: Jurkat
Assay overview: Inhibition of AP-1 and NF-kB-mediated transcriptional activation in Jurkat cells
Format: functional, cell-based, Homo sapiens
Study conditions: Homo sapiens, Jurkat
Kindly supply the reported pIC50 values for the records listed here.
Answers are plain numbers, as −log10 of the molar value.

Recorded results for 4 molecules are shown here.
> print(dat)
                                 mol.smiles  endpoint.label  reported
1  CCc1nc(NN2C(=O)C=C(C)C2=O)ncc1-c1nnc(C)o1           pIC50      5.00
2  CCOC(=O)c1cnc(NN2C(=O)C=C(C)C2=O)nc1-c1nccs1           pIC50      5.66
3  CC1=CC(=O)N(Nc2ncc(C(=O)OC(C)(C)C)c(C(F)(F)F)n2)C1=O           pIC50      6.68
4  CCOC(=O)c1cnc(N(C)N2C(=O)C=C(C)C2=O)nc1C(F)(F)C(F)(F)F           pIC50      6.46

State recorded pIC50 for all listed molecules.
1. CCc1nc(N(C)N2C(=O)C=C(C)C2=O)ncc1COC
2. CCCc1nc(N(C(C)=O)N2C(=O)C=C(C)C2=O)ncc1C(=O)OCC

Result string:
6.20
6.37

I have 8 molecules here; please give me pIC50 for each one.
1. CCOC(=O)c1cnc(NN2C(=O)CCC2=O)nc1C(F)(F)F
2. CC1=CC(=O)N(Nc2ncc(-c3nc(C)co3)c(-c3cccs3)n2)C1=O
3. CCOC(=O)c1cnc(NN2C(=O)C=C(C)C2=O)nc1
4. CCc1nc(NN2C(=O)C=C(C)C2=O)ncc1-c1cc(C)no1
5. CCOC(=O)c1cnc(NN2C(=O)C=C(C)C2=O)nc1-c1ccco1
6. CCc1nc(NN2C(=O)C=C(C)C2=O)ncc1C(=O)OC1CC1
7. CCOC(=O)c1cnc(N(C)N2C(=O)C=C(C)C2=O)nc1-c1cc2ccccc2s1
8. CCOC(=O)c1cnc(N(C)N2C(=O)C=C(C)C2=O)nc1-c1cccs1

Result string:
5.80
6.12
4.89
5.00
6.00
6.92
6.89
7.03

Consider the following items and state reported pIC50 for each.
1. CCOC(=O)c1cnc(NN2C(=O)C=C(C)C2=O)nc1-c1ccc(Cl)s1
2. CCOC(=O)c1cnc(NN2C(=O)C=C(C)C2=O)nc1CC
3. CCc1nc(NN2C(=O)C=C(C)C2=O)ncc1C(=O)c1ccccc1
4. CCOC(=O)c1cnc(NN2C(=O)C=C(C)C2=O)nc1COC
5. CCOC(=O)c1cnc(NN2C(=O)C=C(C)C2=O)nc1C
6. CCc1nc(NN2C(=O)C=C(C)C2=O)ncc1CO

Result string:
1. 6.28
2. 6.40
3. 6.19
4. 5.22
5. 5.72
6. 5.31

Your task in this section: give pIC50 for each listed record.
1. CCc1nc(NN2C(=O)C=C(C)C2=O)ncc1C#N
2. CCOC(=O)c1cnc(NN2C(=O)C=C(C)C2=O)nc1Cc1ccccc1
3. CC1=CC(=O)N(Nc2ncc(C(=O)OC(C)(C)C)c(-c3cccs3)n2)C1=O
4. CC1=CC(=O)N(Nc2ncc(C(=O)N(C)C)c(C(F)(F)F)n2)C1=O
5. CCOC(=O)c1cnc(N(C(=O)NC)N2C(=O)C=C(C)C2=O)nc1C(F)(F)F
6. CCOC(=O)c1cnc(N(C)N2C(=O)C=C(C)C2=O)nc1CC
7. CCOC(=O)c1cnc(NN2C(=O)C=C(C)C2=O)nc1C(F)(F)F
8. CCOC(=O)c1cnc(N(C)N2C(=O)C=C(C)C2=O)nc1-c1ccsc1

Result string:
[5.96, 5.42, 7.30, 4.52, 6.23, 7.46, 5.70, 6.92]

List pIC50 for every entry below, keeping the order given.
1. CCOC(=O)c1cnc(NN2C(=O)C=C(C)C2=O)nc1-c1cccs1
2. CCOC(=O)c1cnc(N(C)N2C(=O)C=C(C)C2=O)nc1-c1nccs1

Result string:
1. 6.85
2. 5.77

Please supply pIC50 for each of the following items, keeping them in order.
1. CCOC(=O)c1cnc(NN2C(=O)C=C(C)C2=O)nc1-c1cc2ccccc2s1
2. CC(=O)c1cnc(NN2C(=O)C=C(C)C2=O)nc1C
3. CCOC(=O)c1cnc(N(Cc2ccccc2)N2C(=O)C=C(C)C2=O)nc1C(F)(F)F

Result string:
[6.10, 5.11, 6.35]
